Each record here notes measured pKd.
study_target: T1, Soluble heterodimeric CD3 protein (hCD3-epsilon/hCD3-delta) with a human Fc tag (hFcΔAdp/hFc) or a mouse Fc … (human, UniProt P07766 23-126; P04234 22-105)
T1 construct: also called hCD3ε/δ; not shown: Fc tag: human (hFcΔAdp/hFc); which tag was used in Ta
T1 sequence (P07766 23-126 limits assumed, stated change not applied, chain 1 of 2): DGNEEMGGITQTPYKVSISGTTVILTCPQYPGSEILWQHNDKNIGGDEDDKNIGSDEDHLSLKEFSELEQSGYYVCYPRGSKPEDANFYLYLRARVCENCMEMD
T1 sequence (P04234 22-105 limits assumed, stated change not applied, chain 2 of 2): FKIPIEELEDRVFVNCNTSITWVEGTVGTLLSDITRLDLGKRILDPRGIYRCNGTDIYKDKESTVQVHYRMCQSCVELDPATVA
test_method_notes: SPR Biacore, 25 C, antibody-capture format
Experimental: Measurements were conducted on a T200 Biacore™ instrument. Soluble heterodimeric CD3 protein (hCD3-epsilon/hCD3-delta; SEQ ID NOs:1652/1653) with either a human Fc tag (hFcΔAdp/hFc; SEQ ID NOs:1683/1684) or a mouse Fc tag (mFcΔAdp/mFc; SEQ ID NOs:1685/1686) was injected over the antibody captured surface and the binding response was recorded. Heterodimeric CD3 protein was purified using the method described in Davis et al. (US2010/0331527). […]
pKd: −log10 of the molar value.

>  <binder>
H2M3563N (antibody, V domains shown, Hybridoma antibody, human variable regions, mouse IgG2 Fc) VH: EVHLVESGGGLVQPGRSLRLSCAASGFTFDDYTMHWVRQAPGKGLEWVSDISWNSGSIGYADSVKGRFTVSRDNAKNSLYLQMNSLRGEDTALYYCAKDMSGYGHYGKYGMDVWGQGTTVTVSS VL: DIQMTQSPSSLSASVGDRVTITCRASQSIRSYLNWYQQKPGKVPKLLIYAASSLQSGVPSRFSGSGSGTDFTLTINSLQPDDFATYYCQQTYSNPPITFGQGTRLEIK

>  <pKd>
8.44

$$$$
>  <binder>
H2M2775N (antibody, V domains shown, Hybridoma antibody, human variable regions, mouse IgG2 Fc) VH: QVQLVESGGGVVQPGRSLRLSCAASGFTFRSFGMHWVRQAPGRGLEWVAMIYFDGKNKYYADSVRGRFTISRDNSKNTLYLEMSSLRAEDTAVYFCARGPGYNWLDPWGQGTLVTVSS VL: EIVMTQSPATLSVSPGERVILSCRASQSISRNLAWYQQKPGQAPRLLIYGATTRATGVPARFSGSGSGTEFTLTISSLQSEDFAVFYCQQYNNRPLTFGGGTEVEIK

>  <pKd>
8.05

$$$$

Origin of values: patent US20190127480A1
